Sourced from PubChem BioAssay (Tox21)

# assay procedure: A CellTox Green Cytotoxicity Assay to monitor cytotoxicity in HepG2 cells - 32 hour (AID 1224883); further: on the % scale 0 is the no-effect control and ±100 the full control effect; nearly all actives have a fitted effect of over 50% in size
# reported conditions: CellTox Green fluorescence; series mostly up to 76.8 µM
Results filed as inconclusive are left out. Activity calls are given as the source filed them. The call rests on the fitted dose curve; in most records, active means well fitted activation curve with a large enough effect in the repeat runs; inconclusive means weak or mixed curves; inactive means flat fitted curve, though single readings scatter.
measurement kind: cytotoxicity increase

Some compounds with known cytotoxicity increase results, for comparison:
{"compound": "COc1cc2c(cc1OC)[C@@H]1CC(=O)[C@@H](CC(C)C)CN1CC2", "cytotoxicity increase": "inactive"}
{"compound": "O=C1CCCC(=O)O1", "cytotoxicity increase": "inactive"}
{"compound": "O=P(O)(O)OP(=O)(O)O", "cytotoxicity increase": "inactive"}
{"compound": "CC(N)C(=O)OC(C)(C)Cc1ccc(Cl)cc1 (stereo unspecified)", "cytotoxicity increase": "inactive"}
{"compound": "CCCCNc1ccc(C(=O)OCCN(C)C)cc1", "cytotoxicity increase": "inactive"}
{"compound": "CC(C)c1ccc2cc(C(C)C)ccc2c1", "cytotoxicity increase": "inactive"}

Please report the recorded cytotoxicity increase for CCNC(=O)C1CC(C)CCC1C(C)C (stereo unspecified) .
inactive

Name the reported cytotoxicity increase value associated with the compound CCOc1cc([N+](=O)[O-])c(OCC)cc1N1CCOCC1
inactive

Any idea what cytotoxicity increase was measured for CCOc1cc(NC(C)=O)ccc1C(=O)OC ?
inactive

Can you share its cytotoxicity increase? I mean this compound: CCCCCCCCC(=O)Cl
inactive

So what's the measured cytotoxicity increase for this one? O=C1c2ccccc2C(=O)c2cc(S(=O)(=O)O)ccc21
inactive

---

# assay procedure: qHTS assay to identify small molecule antagonists of the sonic hedgehog signaling (Shh) pathway (AID 1259369); further: on the % scale 0 is the no-effect control and ±100 the full control effect; nearly all actives have a fitted effect of over 45% in size
# reported conditions: NIH/3T3 Gli1-Luc reporter, Shh antagonist, luminescence 24 h; series mostly up to 92.4 µM
Records with an inconclusive call do not appear. Active and inactive are the calls of the source. Calls come from the whole dose curve.
measurement kind: activity change, negative = inhibition

{"molecule": "COc1ccc(OC)c(Cl)c1", "measured": "inactive"}
{"molecule": "CCn1ccc(NS(=O)(=O)c2ccc(N)cc2)nc1=O", "measured": "inactive"}
{"molecule": "CN=C(NC#N)Nc1ccc(C2=NNC(=O)CC2C)cc1 (stereo not given)", "measured": "inactive"}
{"molecule": "O=C(Nc1ccc(Cl)c(Cl)c1)C1CC1", "measured": "inactive"}
{"molecule": "CCC(CC)CO", "measured": "inactive"}
{"molecule": "CC(C)CCCC(C)(C)O", "measured": "inactive"}

Endpoint output: activity change, negative = inhibition of O=S(O)(O)=S . Value?
0.751% [at 8.39 µM] (inactive)

Fill in the blank: the reported activity change, negative = inhibition of O=C1CC(c2ccc(Cl)cc2)CC(=O)N1 is ____.
inactive

Need activity change, negative = inhibition, item CC(C)CC(=O)O
inactive

Find the recorded activity change, negative = inhibition belonging to CC(C)C(=O)OCCc1ccccc1 and report it.
inactive

Please look up its activity change, negative = inhibition: CC(=O)NCc1c(I)c(NC(C)=O)c(I)c(C(=O)O)c1I
inactive

---

# assay procedure: qHTS assay to identify small molecule antagonists of the progesterone receptor (PR) signaling pathway - cell viability counter screen (AID 1346798);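 further: HEK293T PR-UAS-bla cells stimulated with the agonist R5020; on the % scale 0 is the no-effect control and ±100 the full control effect; nearly all actives have a fitted effect of over 50% in size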
# reported conditions: PR-UAS-bla HEK293T viability, CellTiter-Glo luminescence, 16 h; series mostly up to 92.4 µM
Results filed as inconclusive are left out. Active and inactive are the calls of the source. Calls follow the shape of the dose curve; as a rule, active = well fitted cell-killing curve with a large enough effect in the repeat runs; inconclusive = weak or mixed curves, or effect the other way; inactive = no such curve, though single readings can be large or run the other way.
measurement kind: activity change, negative = cytotoxicity

{"molecule": "CC(C)NCC(O)COc1cccc2[nH]ccc12 (centres undefined)", "activity change, negative = cytotoxicity": "inactive"}
{"molecule": "CC(=O)/C=C/C1C(C)=CCC(C)C1(C)C (centres undefined)", "activity change, negative = cytotoxicity": "inactive"}
{"molecule": "C=C(C)C(=O)OCC(C)(C)COC(=O)C(=C)C", "activity change, negative = cytotoxicity": "inactive"}
{"molecule": "CCCN1C[C@H](CSC)C[C@@H]2c3cccc4[nH]cc(c34)C[C@H]21", "activity change, negative = cytotoxicity": "inactive"}
{"molecule": "CCOCCOC(=O)/C=C/c1ccc(OC)cc1", "activity change, negative = cytotoxicity": "inactive"}
{"molecule": "CCCCC(CC)COCCO (centres undefined)", "activity change, negative = cytotoxicity": "inactive"}
{"molecule": "CC(C)(C)c1nnc(NS(=O)(=O)c2ccc(N)cc2)s1", "activity change, negative = cytotoxicity": "inactive"}
{"molecule": "Nc1ccc2cc(S(=O)(=O)O)cc(O)c2c1", "activity change, negative = cytotoxicity": "inactive"}

Tell me the measured activity change, negative = cytotoxicity of CC(C)(C)OC(=O)c1ccc(O)cc1 , please.
inactive

What does the record list as activity change, negative = cytotoxicity for N[C@@H](COP(=O)(O)O)C(=O)O ?
-0.532% [at 18.9 µM] (inactive)

What value of activity change, negative = cytotoxicity has been recorded for this entry: COc1ccc(Br)c(C)c1
inactive

activity change, negative = cytotoxicity for BrCc1cccc(Oc2ccccc2)c1 ?
inactive

# get_value(readout='activity change, negative = cytotoxicity', item= Nc1cccc(O)c1 )
inactive

// lookup activity change, negative = cytotoxicity for CN(C)C(=O)CNC(=O)Cc1ccccc1
inactive
